Items are presented alongside their recorded clearance.
Assay Overview: Systemic clearance and pharmacokinetics after i.v. dose in C57BL/6 mice aging 2 months
Format: in vivo, mouse
Condition Notes: male, C57BL/6, mouse, plasma, iv, 1 mg/kg, C57BL/6 mice 2 months, i.v. 1 mg/kg; read-out: Cl p (converted)
Experimental Endpoint: clearance

compound="COCCOCCn1c2ccccc2c2cc(/C=C/c3cc[n+](CCO)c4ccccc34)ccc21 [SLOH]" reported_value="~10.2 mL/min/kg"
compound="COCCOCCn1c2ccccc2c2cc(/C=C/c3cc[n+](C)c4ccccc34)ccc21.[I-] [SLM]" reported_value="~11.8 mL/min/kg"

###

Assay Overview: Liver microsomes stability with UDPGA and alamethacin (glucuronidation)
Assay type: in vitro ADME
Condition Notes: pH 7.4, human, 0.5 mg/mL microsomes protein, read-out: t 1/2 in liver microsomes with UDPGA and alamethacin
Items are presented alongside their recorded half-life at 1 μM.
Experimental Endpoint: half-life at 1 μM

mol=COCCOCCn1c2ccccc2c2cc(/C=C/c3cc[n+](CCO)c4ccccc34)ccc21 experimental_endpoint="half-life at 1 μM" reported_value="> 8.33 h"
mol=COCCOCCn1c2ccccc2c2cc(/C=C/c3cc[n+](C)c4ccccc34)ccc21.[I-] experimental_endpoint="half-life at 1 μM" reported_value="> 8.33 h"

###

Items are presented alongside their recorded CLint scaled at 1 μM.
Assay Overview: Liver microsomes stability with NADPH
Assay type: in vitro ADME, mouse
Condition Notes: ICR/CD-1, mouse, liver microsomes, pH 7.4; read-out: Microsomes Cl int,scaled
Experimental Endpoint: CLint scaled at 1 μM

mol=COCCOCCn1c2ccccc2c2cc(/C=C/c3cc[n+](CCO)c4ccccc34)ccc21 experimental_endpoint="CLint scaled at 1 μM" reported_value="110 mL/min/kg"
mol=COCCOCCn1c2ccccc2c2cc(/C=C/c3cc[n+](C)c4ccccc34)ccc21.[I-] experimental_endpoint="CLint scaled at 1 μM" reported_value="130 mL/min/kg"

###

Items are presented alongside their recorded Vd.
Assay Overview: Systemic clearance and pharmacokinetics after i.v. dose in C57BL/6 mice aging 2 months
Format: in vivo, mouse
Condition Notes: male, C57BL/6, mouse, plasma, iv; i.v. 0.2 mg/kg; read-out: Vd ss
Description: Male C57BL/6 and Bile duct-cannulated (BDC) mice (2 months, weighting: 25–30 g) obtained from Charles River, Inc. (Raleigh, NC) were used to study systemic clearance mechanism, in line with in vitro commercial samples from adolescent animals. […] Parameters in animals were determined using non-compartmental analysis. […] Systemic Cl p was calculated as the i.v. dose divided by AUC0−∞ ^iv. […] Mean residence time from t = 0 to infinity (MRT 0−∞) was calculated as AUMC 0−∞ divided by AUC 0−∞. […]
Experimental Endpoint: Vd (L/kg)

molecule="COCCOCCn1c2ccccc2c2cc(/C=C/c3cc[n+](CCO)c4ccccc34)ccc21 [SLOH]" value_units=L/kg reported_value=1
molecule="COCCOCCn1c2ccccc2c2cc(/C=C/c3cc[n+](C)c4ccccc34)ccc21.[I-] [SLM]" value_units=L/kg reported_value=1.5

###

Assay Overview: Systemic clearance and pharmacokinetics after i.v. dose in C57BL/6 mice aging 2 months
Type: in vivo, mouse
Condition Notes: male, C57BL/6, mouse, plasma, iv, 4 mg/kg, i.v. 4.0 mg/kg; read-out: Cl p (converted)
Experimental Endpoint: clearance

mol=COCCOCCn1c2ccccc2c2cc(/C=C/c3cc[n+](C)c4ccccc34)ccc21.[I-] experimental_endpoint=clearance reported_value="13.8 mL/min/kg"
mol=COCCOCCn1c2ccccc2c2cc(/C=C/c3cc[n+](CCO)c4ccccc34)ccc21 experimental_endpoint=clearance reported_value="11.8 mL/min/kg"
